- SYSTEM: human recombinant USP30 (Homo sapiens, UniProt Q70CQ3)
- Construct: purchased Boston Biochem E-582
- Sequence (Q70CQ3 whole entry): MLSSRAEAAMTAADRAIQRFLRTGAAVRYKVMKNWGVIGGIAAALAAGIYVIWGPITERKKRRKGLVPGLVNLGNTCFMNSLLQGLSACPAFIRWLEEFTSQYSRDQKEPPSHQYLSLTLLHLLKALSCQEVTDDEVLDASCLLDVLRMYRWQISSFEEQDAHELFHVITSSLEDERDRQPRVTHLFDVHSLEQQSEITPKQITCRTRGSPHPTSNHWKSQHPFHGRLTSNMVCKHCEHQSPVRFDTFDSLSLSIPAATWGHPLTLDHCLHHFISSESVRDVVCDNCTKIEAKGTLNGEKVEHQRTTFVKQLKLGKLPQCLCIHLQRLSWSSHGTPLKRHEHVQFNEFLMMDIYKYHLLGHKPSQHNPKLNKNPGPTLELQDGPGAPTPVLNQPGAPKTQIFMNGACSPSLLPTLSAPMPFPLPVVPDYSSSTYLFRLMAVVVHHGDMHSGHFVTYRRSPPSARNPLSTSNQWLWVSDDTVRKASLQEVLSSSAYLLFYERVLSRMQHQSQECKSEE
- ASSAY_PROCEDURE: Ubiquitin-Rhodamine 110 Assay for USP30 Activity (USP30 Inhibitor Biochemical Assay)
- COND: 0.2 nM USP30, 25 nM Ub-Rh110, 30 min preincubation, 30 min at room temperature; read-out: USP30 potency range (USP30 biochemical IC50 assay, IC50 ranges)
// reported IC50 per item

* N#CN[C@@H]1C[C@H]1C(=O)Nc1ncc(C2CCCCC2)s1 (relative stereo) [Compound 11-1] | 1 to 10 µM
* N#CN[C@H]1CCN(C(=O)Nc2ncc(C3CCCCC3)s2)C1 [Compound 2-2] | 1 to 10 µM
* C[C@]1(C(=O)Nc2nc(Cl)c(C3CCCCC3)s2)C[C@H](NC#N)C1 [Compound 1-44] | < 0.1 µM

// recorded IC50 for C[C@@H]1CCCC[C@@H]1c1cnc(NC(=O)[C@H]2C[C@H](NC#N)C2)s1 [Compound 1-21] : 0.1 to 1 µM

The value of IC50 measured for the molecule N#CN[C@H]1C[C@H](C(=O)Nc2ncc([C@H]3CCCC[C@H]3C(F)(F)F)s2)C1 [Compound 1-32] turned out to be 0.1 to 1 µM

Entry C[C@H]1CCCC[C@@H]1c1cnc(NC(=O)[C@H]2C[C@H](NC#N)C2)s1 [Compound 1-23] ; IC50 = < 0.1 µM

Note to self: IC50 recorded for N#CN[C@H]1CCC[C@H]1C(=O)Nc1ncc(C2CCCCC2)s1 [Compound 10-7] was 1 to 10 µM

// IC50 lookup, molecule = N#CN[C@H]1C[C@H](N2C[C@@H](Nc3ncc(C4CCCCC4)s3)CC2=O)C1 (single isomer, unassigned) [Compound 6-1] , result: 0.1 to 1 µM
